Data provenance: patent US12582645B2

# ASSAY_TARGET: CXCR4 (Homo sapiens, UniProt P61073)
# Construct: Human T lymphoblast cells (CCRF-CEM) expressing endogenous CXCR4 receptors; endogenous in cells; host or cells: CCRF-CEM (human T lymphoblast cells)
# Sequence (P61073 whole entry): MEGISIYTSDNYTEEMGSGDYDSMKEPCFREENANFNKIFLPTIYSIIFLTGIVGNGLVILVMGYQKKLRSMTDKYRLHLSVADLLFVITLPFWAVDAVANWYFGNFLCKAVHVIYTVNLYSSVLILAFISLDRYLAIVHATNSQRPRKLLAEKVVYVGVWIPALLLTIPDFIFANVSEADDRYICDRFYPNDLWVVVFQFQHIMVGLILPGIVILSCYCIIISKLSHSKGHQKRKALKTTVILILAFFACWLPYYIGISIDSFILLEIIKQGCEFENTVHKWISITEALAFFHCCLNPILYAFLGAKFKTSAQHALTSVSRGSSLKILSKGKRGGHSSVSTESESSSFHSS
# PROCEDURE_DETAILS: CXCR4-CEM calcium flux assay, antagonist mode (inhibition of SDF-1α-induced calcium flux)
# Format: cell-based
# MEASUREMENT_CONDITIONS: CCRF-CEM cells expressing endogenous CXCR4, stimulated with 4 nM SDF-1α, read-out: CXCR4 Ca^2+ Flux IC50
pIC50: −log10 of the molar value.
READOUT_TYPE: pIC50

// solved cases for pIC50 follow
# COMPOUND_SMILES, VAL
measured = [
    ("CN1CCN(c2cccc3c2C[C@H](CN(C)[C@H]2CCCc4cccnc42)NC3)CC1", 7.53),
    ("NCc1cccc(CN(C[C@H]2Cc3ccccc3CN2)[C@H]2CCCc3cccnc32)c1", 6.53),
]

[A] CCN1CCN(c2cccc3c2C[C@H](CN(C)[C@H]2CCCc4cccnc42)NC3)CC1
[B] CN(C[C@H]1Cc2c(cccc2N2CCNC(C)(C)C2)CN1)[C@H]1CCCc2cccnc21
input: Among A and B , whose measured pIC50 is the smaller figure? Return value: the label identifying the chosen record.
output: B

----------
# ASSAY_TARGET: CXCR4 (Homo sapiens, UniProt P61073)
# Construct: Human T lymphoblast cells (CCRF-CEM) expressing endogenous CXCR4 receptors; endogenous in cells; host or cells: CCRF-CEM (human T lymphoblast cells)
# PROCEDURE_DETAILS: CXCR4-CEM calcium flux assay, antagonist mode (inhibition of SDF-1α-induced calcium flux)
# Assay type: cell-based
# MEASUREMENT_CONDITIONS: CCRF-CEM cells expressing endogenous CXCR4, stimulated with 4 nM SDF-1α, read-out: CXCR4 Ca^2+ Flux IC50
# Protocol: CXCR4-CEM Calcium Flux Assays Exemplary compounds of the invention were tested for their ability to induce or inhibit calcium flux in CCRF-CEM cells, a human cell line that endogenously expresses CXCR4. […] Calcium ion concentrations can be easily measured using a wide variety of […] calcium indicators and, as a result, calcium flux assays are commonly employed methods for measuring G protein-coupled receptor (GPCR) activity. […] After correcting for background, EC50 values were determined. […]
READOUT_TYPE: IC50 (nM)

// solved cases for IC50 follow
# COMPOUND, UNIT_ABBREV, IC50
records = [
    ("CN(CC1Cc2c(cccc2N2CCNCC2)CN1)[C@H]1CCCc2cccnc21 (single isomer, unassigned) [EMU034 (Stereoisomer 1)]", "nM", 6.08),
    ("N[C@H]1CC[C@H](CN(C[C@H]2Cc3ccccc3CN2)[C@H]2CCCc3cccnc32)CC1 [EMU074]", "nM", 284),
]

[1] CN(C)C1CCN(c2cccc3c2C[C@H](CN(C)[C@H]2CCCc4cccnc42)NC3)CC1 [EMU228]
[2] C[C@@H](c1ccccn1)N(C[C@H]1Cc2ccccc2CN1)C[C@H]1Cc2ccccc2CN1 [EMU065]
input: Determine, for 1 and 2 , which has the greater value of IC50. Return value: the label identifying the chosen record.
output: 2

----------
# ASSAY_TARGET: CXCR4 (Homo sapiens, UniProt P61073)
# Construct: Human T lymphoblast cells (CCRF-CEM) expressing endogenous CXCR4 receptors; endogenous in cells; host or cells: CCRF-CEM (human T lymphoblast cells)
# PROCEDURE_DETAILS: CXCR4-CEM calcium flux assay, antagonist mode (inhibition of SDF-1α-induced calcium flux)
# Type: cell-based
# MEASUREMENT_CONDITIONS: CCRF-CEM cells expressing endogenous CXCR4, stimulated with 4 nM SDF-1α, read-out: CXCR4 Ca^2+ Flux IC50
READOUT_TYPE: IC50 (nM)

# COMPOUND, UNIT_ABBREV, VAL
data = [
    ("CN(C[C@H]1Cc2c(cccc2N2CCN(C3COC3)CC2)CN1)[C@H]1CCCc2cccnc21", "nM", 380),
    ("C(=C\\CN(C[C@H]1Cc2ccccc2CN1)[C@H]1CCCc2cccnc21)/CNC1CCOCC1", "nM", 15.5),
]

[A] NC(=O)NC/C=C/CN(CC1Cc2ncccc2CN1)[C@H]1CCCc2cccnc21 (single isomer, unassigned) [EMU212 (Stereoisomer 1)]
[B] CN1Cc2cccc(N3CCN4CCC[C@H]4C3)c2C[C@@H]1CN(C)[C@H]1CCCc2cccnc21
[C] CN1CCN(c2cccc3c2CC(CN(C)[C@H]2CCCc4cccnc42)N(C)C3)CC1 (stereo partly shown)
input: // sort entries: IC50, high to low Answer format: the labels, in the requested order.
output: A, C, B

----------
# ASSAY_TARGET: CXCR4 (Homo sapiens, UniProt P61073)
# Construct: Human T lymphoblast cells (CCRF-CEM) expressing endogenous CXCR4 receptors; endogenous in cells; host or cells: CCRF-CEM (human T lymphoblast cells)
# PROCEDURE_DETAILS: CXCR4-CEM calcium flux assay, antagonist mode (inhibition of SDF-1α-induced calcium flux)
# Type: cell-based
# MEASUREMENT_CONDITIONS: CCRF-CEM cells expressing endogenous CXCR4, stimulated with 4 nM SDF-1α, read-out: CXCR4 Ca^2+ Flux IC50
pIC50: −log10 of the molar value.
READOUT_TYPE: pIC50

// solved cases for pIC50 follow
# MOLECULE, ASSAY_TARGET, pIC50
measured = [
    ("CN(CC1Cc2c(cccc2N2CCNCC2)CN1)[C@H]1CCCc2cccnc21 (single isomer, unassigned) [EMU034 (Stereoisomer 2)]", "CXCR4 (Homo sapiens, UniProt P61073)", 6.50),
    ("CN1CCN(c2ccccc2CN2CCNC(CN(C)[C@H]3CCCc4cccnc43)C2)CC1 (some centres unmarked) [EMU070]", "CXCR4 (Homo sapiens, UniProt P61073)", 5.20),
    ("C/C(CN(C[C@H]1Cc2ccccc2CN1)[C@H]1CCCc2cccnc21)=C(/F)CN [EMU126]", "CXCR4 (Homo sapiens, UniProt P61073)", 5.72),
]

[a] CN(CC1Cc2ncccc2CN1)[C@H]1CCCc2cccnc21 (single isomer, unassigned) [EMU174 (Stereoisomer 2)]
[b] CN(C[C@H]1Cc2c(cccc2N[C@H]2CC[C@H](N)CC2)CN1)[C@H]1CCCc2cccnc21 [EMU089]
input: Determine, for a and b , which has the greater value of pIC50. Return value: the label identifying the chosen record.
output: a

[1] C/C(CN)=C(/F)CN(C[C@H]1Cc2ccccc2CN1)[C@H]1CCCc2cccnc21 [EMU141]
[2] c1cnc2c(c1)CCC[C@@H]2N(CCCN1CCNCC1)Cc1nc2ccccc2s1 [EMU186]
input: Determine, for 1 and 2 , which has the greater value of pIC50. Return value: the label identifying the chosen record.
output: 1

----------
# ASSAY_TARGET: CXCR4 (Homo sapiens, UniProt P61073)
# Construct: Human T lymphoblast cells (CCRF-CEM) expressing endogenous CXCR4 receptors; endogenous in cells; host or cells: CCRF-CEM (human T lymphoblast cells)
# PROCEDURE_DETAILS: CXCR4-CEM calcium flux assay, antagonist mode (inhibition of SDF-1α-induced calcium flux)
# Assay type: cell-based
# MEASUREMENT_CONDITIONS: CXCR4 Ca^2+ Flux IC50, CCRF-CEM cells expressing endogenous CXCR4, stimulated with 4 nM SDF-1α
# Description: CXCR4-CEM Calcium Flux Assays Exemplary compounds of the invention were tested for their ability to induce or inhibit calcium flux in CCRF-CEM cells, a human cell line that endogenously expresses CXCR4. […] Calcium ion concentrations can be easily measured using a wide variety of […] calcium indicators and, as a result, calcium flux assays are commonly employed methods for measuring G protein-coupled receptor (GPCR) activity. […] After correcting for background, EC50 values were determined. […]
READOUT_TYPE: pIC50
By convention, pIC50 is the negative base-10 log of a molar concentration.

input: Tell me the measured pIC50 of c1cnc2c(c1)CCC[C@@H]2N(CCCN1CCNCC1)Cc1cc2ccccc2cn1 , please.
output: 7.76

----------
# ASSAY_TARGET: CXCR4 (Homo sapiens, UniProt P61073)
# Construct: Human T lymphoblast cells (CCRF-CEM) expressing endogenous CXCR4 receptors; endogenous in cells; host or cells: CCRF-CEM (human T lymphoblast cells)
# PROCEDURE_DETAILS: CXCR4-CEM calcium flux assay, antagonist mode (inhibition of SDF-1α-induced calcium flux)
# Assay type: cell-based
# MEASUREMENT_CONDITIONS: CCRF-CEM cells expressing endogenous CXCR4, stimulated with 4 nM SDF-1α, read-out: CXCR4 Ca^2+ Flux IC50
# Method: CXCR4-CEM Calcium Flux Assays Exemplary compounds of the invention were tested for their ability to induce or inhibit calcium flux in CCRF-CEM cells, a human cell line that endogenously expresses CXCR4. […] Calcium ion concentrations can be easily measured using a wide variety of […] calcium indicators and, as a result, calcium flux assays are commonly employed methods for measuring G protein-coupled receptor (GPCR) activity. […] After correcting for background, EC50 values were determined. […]
READOUT_TYPE: IC50 (nM)

# MOLECULE, UNIT_ABBREV, IC50
measured = [
    ("CN1CCN(c2cccc3c2C[C@H](CN2CCC[C@H]4CCc5cccnc5[C@H]42)NC3)CC1 [EMU232]", "nM", 25.2),
]

[P] CN1CCN(Nc2cccc3c2C[C@H](CN(C)[C@H]2CCCc4cccnc42)NC3)CC1 [EMU229]
[Q] NC/C=C\CN(CC1Cc2ncccc2CN1)[C@H]1CCCc2cccnc21 (single isomer, unassigned) [EMU142 (Stereoisomer 2)]
[R] NC/C=C\CN(CC1Cc2ncccc2CN1)[C@H]1CCCc2cccnc21 (single isomer, unassigned) [EMU142 (Stereoisomer 1)]
input: // sort entries: IC50, high to low Answer format: the labels, in the requested order.
output: Q, P, R
